The reported measurements were obtained from patent US20140377284A1.

system_under_test: T1, recombinant human CD134:human Fcγ (IgG1) fusion protein (human, UniProt P01857-1 100-330 = IgG part, limits assumed)
T1 construct: domain: Fcγ (IgG1); Bought (R&D Systems); also called rhuCD134
assay_info: ELISA, plate-bound CD134:Fc 50 ng/well
readout_type: EC50

binder: humanized IgG4κ anti-human CD134 antibody clone 20E5 version 20E5_VL2VH3 (antibody, V domains shown, Stabilized human IgG4/κ; end of each range computed) VH: QVQLVQSGAEVKKPGASVKVSCKASGYTFTSYVMHWVRQAPGQRLEWIGYINPYNDGTKYNEKFKGRATLTSDKSASTAYMELSSLRSEDTAVYYCANYYGSSLSMDYWGQGTLVTVSS VL: DIQMTQSPSSLSASVGDRVTITCRASQDISNYLNWYQQKPGKAVKLLIYYTSRLHSGVPSRFSGSGSGTDYTLTISSLQPEDFATYFCQQGNTLPWTFGQGTKVEIKR
readout_type: EC50
result_value: ~0.1 µg/mL
//
binder: humanized IgG4κ anti-human CD134 antibody clone 12H3 version 12H3_VL1VH2 (antibody, V domains shown, Stabilized human IgG4/κ; end of each range computed; also called 12H3_VL1H2; 2H3 VL1VH2 (SF2)) VH: QVQLVQSGAEVKKPGSSVKVSCKASGYTFKDYTMHWVRQAPGQGLEWIGGIYPNNGGSTYNQNFKDRVTLTADKSTSTAYMELSSLRSEDTAVYYCARMGYHGPHLDFDVWGQGTTVTVSS VL: DIQMTQSPSSLSASVGDRVTITCKASQDVGAAVAWYQQKPGKAPKLLIYWASTRHTGVPSRFSGSGSGTDFTLTISSLQPEDFATYYCQQYINYPLTFGGGTKVEIKR
readout_type: EC50
result_value: ~0.05 µg/mL
//
binder: humanized IgG4κ anti-human CD134 antibody clone 20E5 version 20E5_VL1VH3 (antibody, V domains shown, Stabilized human IgG4/κ; end of each range computed; also called 20E5_VL1H3; 2-E5_VL1VH3) VH: QVQLVQSGAEVKKPGASVKVSCKASGYTFTSYVMHWVRQAPGQRLEWIGYINPYNDGTKYNEKFKGRATLTSDKSASTAYMELSSLRSEDTAVYYCANYYGSSLSMDYWGQGTLVTVSS VL: DIQMTQSPSSLSASVGDRVTITCRASQDISNYLNWYQQKPGKAPKLLIYYTSRLHSGVPSRFSGSGSGTDYTLTISSLQPEDFATYYCQQGNTLPWTFGQGTKVEIKR
readout_type: EC50
result_value: ~0.1 µg/mL
//
binder: humanized IgG4κ anti-human CD134 antibody clone 20E5 version 20E5_VL2VH2 (antibody, V domains shown, Stabilized human IgG4/κ; end of each range computed) VH: QVQLVQSGAEVKKPGASVKVSCKASGYTFTSYVMHWVRQAPGQRLEWIGYINPYNDGTKYNEKFKGRATITSDTSASTAYMELSSLRSEDTAVYYCANYYGSSLSMDYWGQGTLVTVSS VL: DIQMTQSPSSLSASVGDRVTITCRASQDISNYLNWYQQKPGKAVKLLIYYTSRLHSGVPSRFSGSGSGTDYTLTISSLQPEDFATYFCQQGNTLPWTFGQGTKVEIKR
readout_type: EC50
result_value: ~0.1 µg/mL
//
binder: humanized IgG4κ anti-human CD134 antibody clone 12H3 version 12H3_VL2VH2 (antibody, V domains shown, Stabilized human IgG4/κ; end of each range computed; also called 12H3_VL2H2) VH: QVQLVQSGAEVKKPGSSVKVSCKASGYTFKDYTMHWVRQAPGQGLEWIGGIYPNNGGSTYNQNFKDRVTLTADKSTSTAYMELSSLRSEDTAVYYCARMGYHGPHLDFDVWGQGTTVTVSS VL: DIQMTQSPSSLSASVGDRVTITCKASQDVGAAVAWYQQKPGKAPKLLIYWASTRHTGVPDRFSGGGSGTDFTLTISSLQPEDFATYYCQQYINYPLTFGGGTKVEIKR
readout_type: EC50
result_value: ~0.05 µg/mL
//
binder: humanized IgG4κ anti-human CD134 antibody clone 12H3 version 12H3_VL2VH1 (antibody, V domains shown, Stabilized human IgG4/κ; end of each range computed; also called 12H3_VL2H1) VH: QVQLVQSGAEVKKPGSSVKVSCKASGYTFKDYTMHWVRQAPGQGLEWMGGIYPNNGGSTYNQNFKDRVTITADKSTSTAYMELSSLRSEDTAVYYCARMGYHGPHLDFDVWGQGTTVTVSS VL: DIQMTQSPSSLSASVGDRVTITCKASQDVGAAVAWYQQKPGKAPKLLIYWASTRHTGVPDRFSGGGSGTDFTLTISSLQPEDFATYYCQQYINYPLTFGGGTKVEIKR
readout_type: EC50
result_value: ~0.05 µg/mL
